Entry source: the supplement of paper PMC10567573

B1: KLHDC10 (parent)
chain: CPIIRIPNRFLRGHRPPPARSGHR

Variants of: B1
experiment_summary: protein stability index of a GFP-peptide fusion (GPS, HEK-293T) (PSI 1-6); higher = more stable;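 further: lentivirally expressed fusions sorted by FACS into six bins by GFP to DsRed ratio, PSI derived from sequencing read proportions per bin multiplied by bin number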
condition_description: c terminus: a fixed tail appended
// Not satisfied strictly below 2 in protein stability index; Satisfied otherwise

Study these solved cases before continuing.
| variant_description | group_label |
| --- | --- |
| S21D | Not satisfied |
| R5M | Not satisfied |
| G13N | Satisfied |

Could you now look at the following variant, please?
Check this variant for protein stability index at or above 2: R9G
Not satisfied
